Provenance of the data: PubChem BioAssay (NCATS)

# assayMethodText: Cellular viability qHTS for adrenocortical cancer (ACC) cell line SW-13 (AID 1963989); also: potency is read from the fitted curve at half-maximal effect; nearly all actives have a fitted effect of over 65% in size
# experimentalConditions: SW-13 ACC cells viability, CellTiter-Glo, 48 h
Inconclusive results are not listed. Calls of active or inactive are those of the source. Calls follow the shape of the dose curve; as a rule, active = well fitted cell-killing curve with a large enough effect; inconclusive = small, poorly fitted or top-dose-only effect; inactive = flat fitted curve, though single readings scatter.
Please go through the items and note down their Potency.

Req: Output measured Potency for this item: `C=CC(=O)Nc1cccc(Oc2nc(Nc3ccc(N4CCN(C)CC4)cc3OC)ncc2Cl)c1`
Resp: 8.91 µM (active)

Req: Answer with the recorded Potency for the molecule listed here: `Nc1c2ccccc2nc2ccccc12`
Resp: 7.31 µM (active)

Req: Recall and state the measured Potency for `CO[C@H]1/C=C\C=C(\C)C(=O)NC2=CC(=O)C(NCCN(C)C)=C(C[C@@H](C)C[C@H](OC)[C@H](O)[C@@H](C)/C=C(/C)[C@@H]1OC(N)=O)C2=O` .
Resp: 0.282 µM (active)

Req: Given `O=C(NC1CC1)c1cccc(-c2ccc3c(NC(=O)C4CC4)n[nH]c3c2)c1` , respond with its Potency.
Resp: 3.55 µM (active)

Req: Output measured Potency for this item: CC(C)(C)C[C@H]1N[C@@H](C(=O)NC2CCC(O)CC2)[C@H](c2cccc(Cl)c2F)[C@@]12C(=O)Nc1cc(Cl)ccc12 (some centres undefined)
Resp: 25.1 µM (active)

Req: Please report Potency for the following molecule: `Cc1[nH]c2ccccc2c1CCNCc1ccc(/C=C/C(=O)NO)cc1`
Resp: 0.251 µM (active)

Req: Tell me Potency reported for `O=C1NC(=O)/C(=C/c2cccc(C(F)(F)F)c2)S1`
Resp: 25.1 µM (active)

Req: Tell me its Potency given `CC(=O)c1ccc2c(c1)c1cc(C(C)=O)ccc1n2CCNC(C)C` as the entry.
Resp: 1.58 µM (active)

Req: Quote Potency reported for `CN(C)CCCN=c1c2ccccc2n(C)c2[nH]c(=O)n(C)c(=O)c12` please.
Resp: 25.1 µM (active)

Req: For the molecule `Cc1[nH]c2ccc(F)cc2c1-c1nc2c3cccnc3c3ncccc3c2[nH]1` , give its reported Potency.
Resp: 2.24 µM (active)

Req: Kindly indicate its recorded Potency. Item: `CNC(=O)c1cccc2cc(Oc3ccnc4cc(OCC5(N)CC5)c(OC)cc34)ccc12`
Resp: 28.2 µM (active)

Req: For the molecule `COc1ccc(/C=C\c2cc(OC)c(OC)c(OC)c2)cc1O` , give its measured Potency value.
Resp: 0.01 µM (active)

Req: Please give the documented Potency of `c1cc(Nc2cc(C3CC3)[nH]n2)nc(Nc2ccc3nc[nH]c3c2)n1`
Resp: 0.224 µM (active)

Req: Specify measured Potency for `COc1cc(CCc2cc(NC(=O)c3ccc(N4C[C@@H](C)N[C@@H](C)C4)cc3)n[nH]2)cc(OC)c1` .
Resp: 28.2 µM (active)

Req: For the molecule `CCn1cc(-c2ccnc3[nH]c(-c4cccc(CN(C)C)c4)cc23)c(-c2ccc(NC(=O)N(C)C)cc2)n1` , give its reported Potency.
Resp: 17.8 µM (active)

Req: Identify the reported Potency for the following entry. `C/C(=C\c1csc(C)n1)[C@@H]1C[C@@H]2O[C@]2(C)CCC[C@H](C)[C@H](O)[C@@H](C)C(=O)C(C)(C)[C@@H](O)CC(=O)N1`
Resp: 3.16 µM (active)

Req: Read off the recorded Potency for `O=C(NO)c1cnc(NC2(c3ccccc3)CC2)nc1`
Resp: 10 µM (active)

Req: Specify Potency for `O=S(=O)(NCCNC/C=C/c1ccc(Br)cc1)c1cccc2cnccc12` and stop.
Resp: 31.6 µM (active)

Req: Supply Potency value. Item: `O=C(/C=C/c1cccc(S(=O)(=O)Nc2ccccc2)c1)NO`
Resp: 3.55 µM (active)
